assay: inhibitors of CD8+ T cell-vesicle binding, pilot screen, LFA-1/ICAM-1 modulator project, MLPCN validation set, flow cytometry (AID 2523); settings: 2C mouse CD8+ T cells, at 7 µM, hits give low values;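 further: mean PE anti-B7-1 fluorescence of CD8+ cells relative to row control; 100% = QL9-loaded vesicles with DMSO vehicle in the same plate row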
MEASUREMENT_KIND: vesicle binding response (%)
Express the result in % but write the number alone.

# count of solved cases: 3
COMPOUND | MEASUREMENT_KIND | MEASURED_NUMBER
Clc1ccc(OCCCN2CCCCC2)c(Br)c1 | vesicle binding response | 202
CCCC1O[C@@H]2C[C@H]3[C@@H]4CCC5=CC(=O)C=C[C@]5(C)[C@H]4[C@@H](O)C[C@]3(C)[C@]2(C(=O)CO)O1 (stereo not given in full) | vesicle binding response | 217
CCCC(=O)O[C@]1(C(=O)CO)CC[C@H]2[C@@H]3CCC4=CC(=O)CC[C@]4(C)[C@H]3[C@@H](O)C[C@@]21C | vesicle binding response | 901

Prompt: Given `COc1ccc(-c2cc3cc(OC)c(OC)cc3c(C)n2)cc1` , respond with its vesicle binding response.
Completion: 149

* * *

biological target: Beta-adrenergic receptor kinase 1 (Homo sapiens) (UniProt P25098); test: GRK2 binders displacing RNA aptamer, biochemical, validation, human GRK2, bead flow cytometry (AID 488806); settings: bead-bound GRK2, FAM-aptamer displacement, at 10 µM, hits give high values
Sequence (P25098 whole entry, looked up): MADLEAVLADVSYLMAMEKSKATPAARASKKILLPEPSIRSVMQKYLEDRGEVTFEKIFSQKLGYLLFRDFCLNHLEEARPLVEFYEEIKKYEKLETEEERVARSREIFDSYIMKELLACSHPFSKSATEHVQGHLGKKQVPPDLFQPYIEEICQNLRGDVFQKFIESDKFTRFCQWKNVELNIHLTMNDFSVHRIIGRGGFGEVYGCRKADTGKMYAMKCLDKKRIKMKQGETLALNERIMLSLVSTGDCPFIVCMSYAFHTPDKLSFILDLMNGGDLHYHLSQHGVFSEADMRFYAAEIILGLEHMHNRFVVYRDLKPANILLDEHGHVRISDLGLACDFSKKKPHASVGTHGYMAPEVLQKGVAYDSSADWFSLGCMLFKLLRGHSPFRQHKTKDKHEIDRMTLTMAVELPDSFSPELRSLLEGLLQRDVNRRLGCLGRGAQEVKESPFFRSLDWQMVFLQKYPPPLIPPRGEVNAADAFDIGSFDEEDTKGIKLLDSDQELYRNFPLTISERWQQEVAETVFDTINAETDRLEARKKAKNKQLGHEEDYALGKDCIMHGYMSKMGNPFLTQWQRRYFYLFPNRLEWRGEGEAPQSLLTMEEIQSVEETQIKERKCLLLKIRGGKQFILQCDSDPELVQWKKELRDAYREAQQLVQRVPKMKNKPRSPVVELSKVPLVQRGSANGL
MEASUREMENT_KIND: aptamer binding inhibition (%)
Express the result in % but write the number alone.

# count of solved cases: 5
MOLECULE | MEASURED_ON | MEASURED_NUMBER
COc1ccc(S(=O)(=O)NC(Cc2cnc[nH]2)C(=O)O)cc1 (configuration not stated) | Beta-adrenergic receptor kinase 1 (Homo sapiens) (UniProt P25098) | 1
O=[N+]([O-])c1cc(/C=N/n2cnnc2)ccc1N1CCCC1 | Beta-adrenergic receptor kinase 1 (Homo sapiens) (UniProt P25098) | 6
COc1ccc(C2(CCN=Cc3ccc(N(C)C)cc3)CCOC(C)(C)C2)cc1 (configuration not stated) | Beta-adrenergic receptor kinase 1 (Homo sapiens) (UniProt P25098) | 0
CCOC(=O)/C=C1\NC(C)(C)Cc2cc(OC)c(OC)cc21 | Beta-adrenergic receptor kinase 1 (Homo sapiens) (UniProt P25098) | 4
CN1CCC(=C2c3ccccc3C=Cc3ccccc32)CC1 | Beta-adrenergic receptor kinase 1 (Homo sapiens) (UniProt P25098) | -3

Prompt: GET aptamer binding inhibition where system = Beta-adrenergic receptor kinase 1 (Homo sapiens) (UniProt P25098) and item = `COc1cc2c(cc1OC)C1(CCCCC1)CN(C)C2`
Completion: 5

Prompt: GET aptamer binding inhibition where system = Beta-adrenergic receptor kinase 1 (Homo sapiens) (UniProt P25098) and item = `NC12CC3CC(C1)CC(O)(C3)C2`
Completion: 3

Prompt: GET aptamer binding inhibition where system = Beta-adrenergic receptor kinase 1 (Homo sapiens) (UniProt P25098) and item = CC1=CC2(O)OCCN(CCO)C2=CC1=O (configuration not stated)
Completion: 2

Prompt: GET aptamer binding inhibition where system = Beta-adrenergic receptor kinase 1 (Homo sapiens) (UniProt P25098) and item = `COc1ccc(C(=O)/C=C/c2cc(C(=O)O)cc3c2OCOC3)c(O)c1`
Completion: 6

* * *

test: modulators of AGP1-GFP expression in yeast TOR pathway, primary screen, cell-based, multiplex flow cytometry, S. cerevisiae (AID 1887); settings: 3 h, at 10 µM, hits give high values;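 further: AGP1-GFP fusion strain of S. cerevisiae within a five-strain barcoded multiplex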
Inconclusive results are not listed.
MEASUREMENT_KIND: GFP response, % of DMSO (%)
Express the result in % but write the number alone.

# count of solved cases: 7
MOLECULE | MEASUREMENT_KIND | MEASURED_NUMBER
COc1ccc2nc(Nc3nc(CSc4ccc(C)cc4)cc(=O)[nH]3)nc(C)c2c1 | GFP response, % of DMSO | 104
COc1ccc(CCN(C)CCCC(C#N)(c2ccc(OC)c(OC)c2)C(C)C)cc1OC (stereo not drawn) | GFP response, % of DMSO | 99.7
CN=C1c2cc3cc(OC)ccc3n2CCN1C | GFP response, % of DMSO | 99
COc1ccc2oc(=O)c(C(=O)N3CCN(c4ccccc4)CC3)cc2c1 | GFP response, % of DMSO | 90.3
CC(=O)OCC(=O)C1=CCC2C3CCC4=CC(=O)C=CC4(C)C3(F)C(OC(C)=O)CC12C (stereo not drawn) | GFP response, % of DMSO | 105
Nc1cccc2c1nnn2C1OC(CO)C(O)C(O)C1O (stereo not drawn) | GFP response, % of DMSO | 102
COc1ccc2c(c1)[nH]c1c(=O)n(Cc3ccccn3)cnc12 | GFP response, % of DMSO | 96.1

Please examine the following record next.
Prompt: Given Cn1cc(CN2CCCC(CO)(Cc3cccc(Cl)c3)C2)cn1 (stereo not drawn) , respond with its GFP response, % of DMSO.
Completion: 99.5
